Test: small-molecule microarray binders of probe aNog, primary screen, biochemical, biotinylated probe, 635/667 nm fluorescence (AID 1115);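 further: probe is biotinylated aNog protein used at 0.15 µg/mL for 1 h at 4 C; z-score combines 667 nm fluorescence of each spot with its signal to noise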
Conditions: higher = more signal
Use 1 when the recorded composite z-score is no lower than -0.1; use -1 when it is lower.

# count of solved cases: 3
compound=CCCNC(=O)OC[C@H]1O[C@H](CCON=C[C@@H](OC)[C@H](C)C=CCC(=O)OC)C=C[C@@H]1Oc1ccc(OC)cc1 category=-1
compound=COCC1=C2[C@@H](CCc3ccccc3)OB(O)C[C@@H]2n2c(=O)n(-c3ccccc3)c(=O)n2C1 category=-1
compound=COC(=O)[C@@H]1CCCN1C(=O)[C@@H](C)CO category=1

## Input Kindly determine if composite z-score recorded for O=C(CS)NCCCCCNC(=O)[C@@H]1C[C@@H]2C(=O)N[C@@H](Cc3ccccc3)C(=O)N2[C@@H]1c1ccc(O)cc1 is above or exactly -0.1.
## Output -1

## Input Exam item: decide whether the reported composite z-score for COc1ccc(O[C@H]2C=C[C@@H](c3ccccc3)O[C@@H]2COC(=O)CCC(C)=NOCC[C@@H]2C=C[C@H](OC(C)=O)[C@@H](COC(C)=O)O2)cc1 is at least -0.1.
## Output 1

## Input Is it the case that CC(C)CON=C1C[C@@H](O)[C@@H](O)[C@@H]2[C@@H]3C(=O)N(Cc4ccccc4)C(=O)[C@@H]3CC[C@@H]12 has composite z-score reaching or exceeding -0.1?
## Output -1

## Input Assess whether reported composite z-score for CCCNC(=O)OC[C@H]1O[C@H](CCON=CC[C@@H]2C=C[C@H](OC(C)=O)[C@@H](COC(C)=O)O2)C=C[C@@H]1Oc1ccc(OC)cc1 sits at -0.1 or higher.
## Output -1

## Input Textbook exercise: given the entry Cn1cccc1C(O)C1C=CC2C(=O)NC(=O)C2N1Nc1ccccn1 (stereo unspecified) , state whether its composite z-score is greater than or equal to -0.1.
## Output 1

## Input hey, is composite z-score for this one >= -0.1? CC(C)=C1C(=O)C(c2ccccc2)=C2CN3C(=O)N(CCc4ccccc4)C(=O)[C@]3(Cc3ccc(F)cc3)[C@H]21
## Output -1

## Input Entry C#C[C@@H]1Oc2ccccc2S(=O)(=O)N2CCC[C@H]12 : is its composite z-score no less than -0.1?
## Output 1

## Input Is it the case that CC(C)=NOCc1ccc(-c2cc(-c3ccccc3)no2)cc1 has composite z-score reaching or exceeding -0.1?
## Output -1

## Input In plain terms: is recorded composite z-score at least -0.1 for C=C(/C(=C/C[C@@H](OC(=O)c1ccncc1)c1ccc(OCCO)cc1)c1cnc2ccccc2c1)C(C)C ?
## Output -1

## Input Please tell me: is the compound COC(=O)CC=C[C@H](C)[C@@H](OCc1ccccc1Br)C(C)C at or over -0.1 in terms of composite z-score?
## Output -1

## Input Answer whether composite z-score of CC[C@@H](c1ccccc1)n1c(=O)n2n(c1=O)[C@H]1[C@H](O)[C@@H]3O[C@@H]3C(=NOCC=C(C)CCC=C(C)C)[C@H]1CC2 is greater than or equal to -0.1.
## Output -1

## Input Please check the record O=C1C2=CC[C@H]3C(=O)N(Cc4ccc5c(c4)OCO5)C(=O)[C@H]3[C@H]2[C@H](O)[C@@H]2O[C@H]12 and state if its composite z-score is at or above -0.1.
## Output 1

## Input Has COC(=O)CC1OC1[C@H](C)[C@@H](OC)C(C)C (stereo partly specified) a recorded composite z-score greater than or equal to -0.1?
## Output -1

## Input Check the entry O=C(CS)NCCCCCNC(=O)[C@H]1C[C@H]2C(=O)N3CCC[C@H]3C(=O)N2[C@H]1c1cccc(OCCO)c1 : does composite z-score equal or exceed -0.1?
## Output -1

## Input Assess whether reported composite z-score for CC(C)[Si]1(C(C)C)O[C@@H](c2ccccc2)c2cc(C3CC3)nc(-c3ccccc3)c21 sits at -0.1 or higher.
## Output -1

## Input I'd appreciate it if you could say whether O=C1C[C@@H](O)[C@@H](O)[C@@H]2[C@@H]3C(=O)N(c4ccc(F)cc4F)C(=O)[C@@H]3CC[C@@H]12 has composite z-score at least equal to -0.1.
## Output -1

## Input Answer whether composite z-score of C=CCOC(=O)[C@H]1[C@@H]2C(=O)O[C@@H](c3ccccc3)[C@@H](c3ccccc3)N2[C@@H](c2ccc(OCCOC(=O)[C@H]3C[C@H]4C(=O)N[C@@H](Cc5ccccc5)C(=O)N4[C@H]3c3ccc(O)cc3)cc2)[C@]12C(=O)Nc1ccccc12 is greater than or equal to -0.1.
## Output -1
